pIC50: −log10 of the molar value.
The next entries give measured pIC50 for RNR (RNR1:RNR2 1:1) (Homo sapiens (Human)).

Known results for compounds:
Compound | Target entity | Result value
COc1cc(Cl)cc2c1S(=O)(=O)N([C@@H](c1n[nH]c(=O)o1)[C@@H](C)c1c(F)ccc(C)c1C)C2=O (stereo in doubt) [Example 15] | RNR (RNR1:RNR2 1:1) (Homo sapiens (Human)) | 4.00 to 5.00
Cc1ccc(F)c([C@@H](C)[C@@H](c2n[nH]c(=O)o2)N2CC(F)(F)c3cc(Cl)ccc3S2(=O)=O)c1C | RNR (RNR1:RNR2 1:1) (Homo sapiens (Human)) | 6.00 to 7.00
COc1cc(Cl)cc2c1S(=O)(=O)N([C@@H](c1n[nH]c(=O)o1)[C@@H](C)c1c(F)ccc(C)c1C)C2=O (stereo in doubt) [Example 3] | RNR (RNR1:RNR2 1:1) (Homo sapiens (Human)) | 4.00 to 5.00
Cc1ccc(F)c(C(C)[C@@H](c2n[nH]c(=O)o2)N2CC(C)c3cc(Cl)ccc3S2(=O)=O)c1C (some centres unmarked) | RNR (RNR1:RNR2 1:1) (Homo sapiens (Human)) | ≥ 7.00
Cc1ccc(F)c(C(C)[C@@H](c2n[nH]c(=O)o2)N2C[C@H](O)[C@H](O)c3cc(Cl)ccc3S2(=O)=O)c1C (some centres unmarked) | RNR (RNR1:RNR2 1:1) (Homo sapiens (Human)) | ≥ 7.00
Cc1ccc(F)c([C@H](C)[C@@H](c2n[nH]c(=O)o2)N2C(=O)c3cc(Cl)ccc3S2(=O)=O)c1C | RNR (RNR1:RNR2 1:1) (Homo sapiens (Human)) | 5.00 to 6.00

## Input What reported pIC50 corresponds to Cc1ccc(F)c([C@@H](C)[C@@H](c2n[nH]c(=O)o2)N2CCc3cc(Cl)ncc3S2(=O)=O)c1C on RNR (RNR1:RNR2 1:1) (Homo sapiens (Human))?
## Output 6.00 to 7.00

## Input What reported pIC50 corresponds to Cc1ccc(F)c([C@H](C)[C@H](c2n[nH]c(=O)o2)N2CCc3cc(Cl)ccc3S2(=O)=O)c1C on RNR (RNR1:RNR2 1:1) (Homo sapiens (Human))?
## Output 4.00 to 5.00

## Input What reported pIC50 corresponds to Cc1ccc(F)c([C@@H](C)[C@@H](c2n[nH]c(=O)o2)N2CCc3ccccc3S2(=O)=O)c1C on RNR (RNR1:RNR2 1:1) (Homo sapiens (Human))?
## Output 6.00 to 7.00

## Input What reported pIC50 corresponds to Cc1ccc(F)c([C@@H](C)[C@@H](c2nn[nH]n2)N2CCc3cc(Cl)ccc3S2(=O)=O)c1C on RNR (RNR1:RNR2 1:1) (Homo sapiens (Human))?
## Output ≥ 7.00

## Input What reported pIC50 corresponds to Cc1ccc(F)c(C(C)[C@@H](c2n[nH]c(=O)o2)N2C(=O)Cc3cc(Cl)ccc3S2(=O)=O)c1C (some centres unmarked) on RNR (RNR1:RNR2 1:1) (Homo sapiens (Human))?
## Output 4.00 to 5.00

## Input What reported pIC50 corresponds to Cc1ccc(F)c([C@H](C)[C@@H](c2n[nH]c(=O)o2)N2CCc3ccc(Cl)cc3S2(=O)=O)c1C on RNR (RNR1:RNR2 1:1) (Homo sapiens (Human))?
## Output 4.00 to 5.00

## Input What reported pIC50 corresponds to Cc1ccc(F)c([C@@H](C)[C@@H](c2n[nH]c(=O)o2)N2Cc3cc(Cl)ccc3S2(=O)=O)c1C on RNR (RNR1:RNR2 1:1) (Homo sapiens (Human))?
## Output 5.00 to 6.00

## Input What reported pIC50 corresponds to Cc1ccc(F)c([C@@H](C)[C@@H](c2n[nH]c(=O)o2)N2CCc3c(Cl)cccc3S2(=O)=O)c1C on RNR (RNR1:RNR2 1:1) (Homo sapiens (Human))?
## Output 6.00 to 7.00
